# maps each entry to its inhibition
# tested-target: Virion infectivity factor (Human immunodeficiency virus type 1 group M subtype B (isolate BH10)) + Virion infectivity factor (Human immunodeficiency virus type 1 group M subtype B (isolate BRU/LAI)) + Virion infectivity factor (Human immunodeficiency virus type 1 group M subtype B (isolate PCV12)) + Virion infectivity factor (Human immunodeficiency virus type 1 group M subtype B (isolate HXB2)) + DNA dC->dU-editing enzyme APOBEC-3G (Homo sapiens) (UniProt P69720+P69721+P69722+P69723+Q9HC16)
# method-description: inhibitors of Vif binding to APOBEC3G peptide, primary screen, biochemical, TR-FRET, GST-Vif 1-94, biotin-A3G peptide, dose response retest (AID 1117319);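 also: Vif residues 1-94 fused to GST binding biotinylated APOBEC3G peptide 110-148; 0% = full assay without inhibitor and 100% = GST in place of GST-Vif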
# assay-setup: hits give high values
The campaign covered roughly 260,000 compounds. About 1,500 (0.58%) were called active. Inconclusive results (about 5%) are left out. The list is a sample of the results. Measured potencies and affinities stand elsewhere.
property-measured: inhibition (%)

INSERT INTO results (compound, property_measured, numeric_result) VALUES
  ('N#Cc1cccc(NC(=O)CSc2nnc(-c3n[nH]c4ccccc34)o2)c1', 'inhibition', -4.45),
  ('CCOc1ccc(NC(=O)/C(C=Nc2ccccc2)=C(\C)O)cc1', 'inhibition', -3.41),
  ('COC(=O)C1=C(C)N(Cc2ccco2)C(=O)/C1=C\c1ccc([N+](=O)[O-])cc1', 'inhibition', -12.1),
  ('Cc1ccc(NC(=O)C2CC(O)CN2C(=O)OCc2ccccc2)cc1C (stereo not given)', 'inhibition', -2.11),
  ('CC(NC(=O)c1ccc2nc(Cc3cccc(Cl)c3)oc2c1)c1ccncn1 (stereo not given)', 'inhibition', 0.5),
  ('COCCNC(=O)CSc1cc(-c2ccccc2)c2ccc(OC)cc2n1', 'inhibition', -24.8),
  ('CCCS(=O)(=O)c1nc(S(=O)(=O)c2ccc(C)cc2)c(N2CCCC2)s1', 'inhibition', -10.9),
  ('Cn1nccc1C(=O)Nc1ccc2c(c1)OCO2', 'inhibition', -8.05),
  ('CCOC(=O)C(C#N)=C1CCN(Cc2ccccc2)CC1', 'inhibition', -5.62),
  ('Cc1cc(NC(=O)CSc2nc3ccccc3c(=O)n2C2CCCC2)no1', 'inhibition', 3.03),
  ('CCN1C(=O)/C(=C\c2cccs2)C(C(=O)OC)=C1C', 'inhibition', 2.01),
  ('COc1ccc(OC)c(C2C(C(=O)c3cccs3)=C(O)C(=O)N2CCN(C)C)c1 (stereo not given)', 'inhibition', 0.56),
  ('COC(=O)C1=C(C(=O)OC)[C@@H]2Nc3ccccc3[C@@]23C[C@@H](C(=O)OC)N=C3N1', 'inhibition', 0.57),
  ('CN1C(=O)/C(=C/c2ccco2)SC1=Nc1ccc(N2CCOCC2)cc1', 'inhibition', 25),
  ('O=C(C1CCN(S(=O)(=O)c2cccc3cccnc23)CC1)N1CCN(c2ccccc2)CC1', 'inhibition', 3.12),
  ('Cc1nc(N)sc1C(=O)N/N=C/c1cccnc1', 'inhibition', 3.64),
  ('COC(=O)C1=C(C)NC(=O)/C1=C\c1ccc2c(c1)OCO2', 'inhibition', 16),
  ('Nc1nc(SCC(=O)c2c(N)n(Cc3ccccc3)c(=O)[nH]c2=O)n[nH]1', 'inhibition', -2.67),
  ('O=C(C1CCCN1S(=O)(=O)c1cccc2cccnc12)N1CCc2ccccc2C1 (stereo not given)', 'inhibition', 8.45),
  ('CCSc1nc(-c2ccccc2)c(-c2ccccc2)n1CC(O)CO (stereo not given)', 'inhibition', -5.14),
  ('CCOC(=O)c1ccc(NCc2ccncc2)cc1', 'inhibition', -1.73),
  ('CC(/C=C/c1ccc(Cl)o1)=C\C(=O)O', 'inhibition', 27.4),
  ('COc1ccc(C(=O)N/C(=C\c2ccco2)C(=O)OCc2ccco2)cc1', 'inhibition', 19.9),
  ('CCc1cccc2c(C(=O)CSc3nncn3C)c[nH]c12', 'inhibition', 3.36),
  ('COC(=O)C1=C(C)NC(=O)/C1=C\c1cc(C)n(-c2c(C)cccc2C)c1C', 'inhibition', 22.2),
  ('O=C(CSc1nc2sc3c(c2c(=O)[nH]1)CCC3)NCCO', 'inhibition', -6.15),
  ('CCCCOc1ccccc1C1NC(=O)CCC1[N+](=O)[O-] (stereo not given)', 'inhibition', -4.07),
  ('CC(C(=O)OCC(=O)N(C)C1(C#N)CCCCC1)N1C(=O)c2ccccc2C1=O (stereo not given)', 'inhibition', -0.19),
  ('Cc1ccc(S(=O)(=O)N2C(=O)CCC2C(N)=O)cc1 (stereo not given)', 'inhibition', -11.2),
  ('C/C(=N\NC=O)c1ccncc1', 'inhibition', -3.47),
  ('COc1ccc(C)cc1-n1c(C)cc(C=O)c1C', 'inhibition', -0.15),
  ('CNC(=O)C12CCC(C)(c3nc4cc(C)c(C)cc4nc31)C2(C)C (stereo not given)', 'inhibition', 2.01),
  ('COc1ccc(CC(=O)Nc2ccc(C(N)=O)cc2)cc1', 'inhibition', 15.2),
  ('CCOC(=O)c1nc(NCc2cccc(OC)c2)c2ccccc2n1', 'inhibition', -2.69),
  ('COC(=O)CSc1cc(C)nc(NC(C)=O)n1', 'inhibition', 3.6),
  ('CCCCn1c(N)c(N(CCOC)C(=O)CCCc2nc3ccccc3c(=O)[nH]2)c(=O)[nH]c1=O', 'inhibition', -0.43),
  ('CN1C(=O)CSC1=Nc1cccc(C(=O)O)c1', 'inhibition', -5.13),
  ('Cc1ccc(SCc2c(C(=O)N/N=C/c3ccc(C)o3)nnn2-c2nonc2N)cc1', 'inhibition', -4.93),
  ('CCC(C)(C(=O)NC1CCCCC1)N(Cc1cccs1)C(=O)Cc1cccs1 (stereo not given)', 'inhibition', 23.9),
  ('CCOc1cccc(N2C(=O)CC(N3CCN(c4nc5ccccc5s4)CC3)C2=O)c1 (stereo not given)', 'inhibition', -1.33),
  ('CN(C)c1ccc(NC(=O)CSc2nc3ccccc3c(=O)n2CC2CCCO2)cc1 (stereo not given)', 'inhibition', 1.51),
  ('Cc1ccc(C(=O)CSc2nc3cccnc3n2C)cc1', 'inhibition', 6.72),
  ('COC(=O)C1=C(C)N(C)C(=O)/C1=C\c1ccco1', 'inhibition', 9.7),
  ('CCCCOc1ccc(C(=O)N/C(=C\c2ccc(OC)cc2)C(=O)OCc2ccco2)cc1', 'inhibition', -1.87),
  ('CC(/C=C/c1ccc(C)o1)=C\C(=O)O', 'inhibition', 2.74);
